experiment: self-splicing fitness, log relative to wild type (ln ratio); higher = more splicing; Tetrahymena group I intron in knt gene, E. coli kanamycin selection, DiMSum; sequences stand for … in CUCUCU…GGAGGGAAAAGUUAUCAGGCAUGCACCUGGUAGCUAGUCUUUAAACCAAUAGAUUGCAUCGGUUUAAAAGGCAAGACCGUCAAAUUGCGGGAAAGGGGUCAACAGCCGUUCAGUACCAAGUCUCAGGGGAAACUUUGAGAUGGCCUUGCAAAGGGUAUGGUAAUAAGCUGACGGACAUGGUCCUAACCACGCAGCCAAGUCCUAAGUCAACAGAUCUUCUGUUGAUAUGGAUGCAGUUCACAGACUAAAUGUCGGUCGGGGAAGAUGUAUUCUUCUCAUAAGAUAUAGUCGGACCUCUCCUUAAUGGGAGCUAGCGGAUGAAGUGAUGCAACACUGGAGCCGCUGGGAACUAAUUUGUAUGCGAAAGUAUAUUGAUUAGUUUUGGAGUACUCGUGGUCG; conditions: 30 °C;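 further: selection with 25 µg/mL kanamycin versus none on LB agar overnight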
Outcome: condition met for self-splicing fitness (ln) of at least -3; condition not met for anything lower.

INSERT INTO measurements (monomersequence, answerlabel) VALUES
  ('AUUCAGCAAUAUUACGGAUU', 'condition not met');

Say whether UUGUAGCAAUAUUACGGUCA shows self-splicing fitness (ln) of -3 or more.
condition met

One more sequence: ACUCAGCAAUAUUACGGUGU
condition met

---

assay: self-splicing fitness, log relative to wild type (ln ratio); higher = more splicing; Tetrahymena group I intron in knt gene, E. coli kanamycin selection, DiMSum; sequences stand for … in CUCUCU…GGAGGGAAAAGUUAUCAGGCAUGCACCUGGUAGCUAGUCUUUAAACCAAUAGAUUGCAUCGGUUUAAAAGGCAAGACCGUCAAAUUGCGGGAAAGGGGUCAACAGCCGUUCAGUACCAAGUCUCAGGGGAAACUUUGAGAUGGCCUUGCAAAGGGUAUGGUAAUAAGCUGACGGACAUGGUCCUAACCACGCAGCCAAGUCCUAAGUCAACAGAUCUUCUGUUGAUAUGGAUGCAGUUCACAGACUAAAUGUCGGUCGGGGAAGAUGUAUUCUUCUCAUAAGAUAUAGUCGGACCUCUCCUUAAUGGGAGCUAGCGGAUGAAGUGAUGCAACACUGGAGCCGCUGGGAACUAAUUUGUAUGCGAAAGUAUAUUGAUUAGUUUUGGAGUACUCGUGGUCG; conditions: 30 °C
Outcome: T for self-splicing fitness (ln) of at least -3; F for anything lower.

// below: answered sequences
INSERT INTO assay_data (monomersequence, answerlabel) VALUES
  ('GUACAGCAAUAUUACGGGGC', 'F'),
  ('AAGCAGCAAUAUUACGGCUA', 'T'),
  ('AUACAGCAAUAUUACGUCCU', 'T'),
  ('CACAAGCAAUAUUACGCCUC', 'T'),
  ('CUGUAGCAAUAUUACGUGCG', 'T');

Say whether GAAAAGCAAUAUUACGCUCA shows self-splicing fitness (ln) of -3 or more.
T

One more sequence: GGGGAGCAAUAUUACGGCAA
T

One more sequence: AGUGAGCAAUAUUACGAGGG
F

One more sequence: ACCCAGCAAUAUUACGCCCC
T

One more sequence: CGAAAGCAAUAUUACGUGCU
F

---

test: self-splicing fitness, log relative to wild type (ln ratio); higher = more splicing; Tetrahymena group I intron in knt gene, E. coli kanamycin selection, DiMSum; sequences stand for … in CUCUCU…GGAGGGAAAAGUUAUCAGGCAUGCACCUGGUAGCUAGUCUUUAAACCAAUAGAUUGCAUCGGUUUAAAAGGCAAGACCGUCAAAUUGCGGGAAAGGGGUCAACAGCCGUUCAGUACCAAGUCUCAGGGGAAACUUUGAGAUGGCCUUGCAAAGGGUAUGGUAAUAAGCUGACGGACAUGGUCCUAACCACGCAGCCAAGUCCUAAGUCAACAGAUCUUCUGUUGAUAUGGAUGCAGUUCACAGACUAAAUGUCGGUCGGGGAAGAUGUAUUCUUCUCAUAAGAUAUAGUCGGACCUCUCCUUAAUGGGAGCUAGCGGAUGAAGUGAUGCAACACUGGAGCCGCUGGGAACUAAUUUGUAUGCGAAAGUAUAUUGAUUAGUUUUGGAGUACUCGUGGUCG; details: 30 °C
Here, each record is paired with measured self-splicing fitness (ln) data.

INSERT INTO assay_data (monomersequence, assayresult) VALUES
  ('UUCGAGCAAUAUUACGUUCC', -2.94);

What does the record list as self-splicing fitness (ln) for UCGAAGCAAUAUUACGCAUA ?
-3.01

One more sequence: CGUCAGCAAUAUUACGUUAU
-2.95

One more sequence: CAUAAGCAAUAUUACGGGAA
-2.98

---

experiment: self-splicing fitness, log relative to wild type (ln ratio); higher = more splicing; Tetrahymena group I intron in knt gene, E. coli kanamycin selection, DiMSum; sequences stand for … in CUCUCU…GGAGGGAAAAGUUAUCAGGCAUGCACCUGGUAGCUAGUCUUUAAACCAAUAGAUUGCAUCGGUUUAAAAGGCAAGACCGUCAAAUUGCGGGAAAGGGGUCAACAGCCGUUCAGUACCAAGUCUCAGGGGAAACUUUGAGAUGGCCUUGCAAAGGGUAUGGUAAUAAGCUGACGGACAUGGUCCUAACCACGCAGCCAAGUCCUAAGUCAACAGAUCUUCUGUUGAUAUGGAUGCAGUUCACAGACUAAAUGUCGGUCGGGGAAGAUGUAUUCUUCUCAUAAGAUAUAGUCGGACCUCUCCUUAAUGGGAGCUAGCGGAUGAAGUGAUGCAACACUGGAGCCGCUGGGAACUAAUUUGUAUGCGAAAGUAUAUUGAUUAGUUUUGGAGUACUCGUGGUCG; settings: 30 °C
assayReadout: self-splicing fitness (ln)
Form rule: numeric answer, no unit written next to it.

Worked cases, answers included:
INSERT INTO results (monomersequence, assayresult) VALUES
  ('UUAGAGCAAUAUUACGGGUC', -3.07),
  ('CCAGAGCAAUAUUACGUUCG', -2.91),
  ('GUCCAGCAAUAUUACGGUAC', -2.97);

What does the record list as self-splicing fitness (ln) for AGACAGCAAUAUUACGUGGC ?
-3.01

One more sequence: AAUAAGCAAUAUUACGUGGG
-3

One more sequence: AACGAGCAAUAUUACGUCAA
-3.08

One more sequence: AUGCAGCAAUAUUACGCGGG
-2.94

---

Here, each record is paired with measured self-splicing fitness (ln) data.
assay: self-splicing fitness, log relative to wild type (ln ratio); higher = more splicing; Tetrahymena group I intron in knt gene, E. coli kanamycin selection, DiMSum; sequences stand for … in CUCUCU…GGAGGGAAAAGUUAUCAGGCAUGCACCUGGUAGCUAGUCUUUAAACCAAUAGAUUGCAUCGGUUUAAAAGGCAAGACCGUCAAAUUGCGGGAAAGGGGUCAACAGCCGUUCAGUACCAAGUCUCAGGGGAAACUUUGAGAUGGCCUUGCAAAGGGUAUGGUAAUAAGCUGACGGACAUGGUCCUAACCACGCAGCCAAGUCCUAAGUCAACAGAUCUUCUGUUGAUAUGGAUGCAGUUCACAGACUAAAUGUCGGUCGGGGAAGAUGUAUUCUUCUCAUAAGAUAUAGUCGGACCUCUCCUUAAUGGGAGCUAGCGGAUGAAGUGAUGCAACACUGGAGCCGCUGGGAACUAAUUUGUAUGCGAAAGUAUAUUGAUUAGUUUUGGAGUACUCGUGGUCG; settings: 30 °C

Worked cases, answers included:
INSERT INTO measurements (monomersequence, assayresult) VALUES
  ('CUUAAGCAAUAUUACGCGAU', -1.91),
  ('UCAAAGCAAUAUUACGGGAA', -1.5),
  ('AUUCAGCAAUAUUACGCAAA', -1.04),
  ('UGCUAGCAAUAUUACGUCCC', -3.34),
  ('ACUGAGCAAUAUUACGGUGC', -3.32),
  ('CCUGAGCAAUAUUACGCUUC', -3.16);

What does the record list as self-splicing fitness (ln) for AUAUAGCAAUAUUACGCCGA ?
-2.85

One more sequence: AGGAAGCAAUAUUACGGAAG
-2.98

One more sequence: GCCUAGCAAUAUUACGCUUG
-2.37

One more sequence: GGUAAGCAAUAUUACGGUCU
0.187

One more sequence: UAAGAGCAAUAUUACGAUGA
-2.15

---

assay: self-splicing fitness, log relative to wild type (ln ratio); higher = more splicing; Tetrahymena group I intron in knt gene, E. coli kanamycin selection, DiMSum; sequences stand for … in CUCUCU…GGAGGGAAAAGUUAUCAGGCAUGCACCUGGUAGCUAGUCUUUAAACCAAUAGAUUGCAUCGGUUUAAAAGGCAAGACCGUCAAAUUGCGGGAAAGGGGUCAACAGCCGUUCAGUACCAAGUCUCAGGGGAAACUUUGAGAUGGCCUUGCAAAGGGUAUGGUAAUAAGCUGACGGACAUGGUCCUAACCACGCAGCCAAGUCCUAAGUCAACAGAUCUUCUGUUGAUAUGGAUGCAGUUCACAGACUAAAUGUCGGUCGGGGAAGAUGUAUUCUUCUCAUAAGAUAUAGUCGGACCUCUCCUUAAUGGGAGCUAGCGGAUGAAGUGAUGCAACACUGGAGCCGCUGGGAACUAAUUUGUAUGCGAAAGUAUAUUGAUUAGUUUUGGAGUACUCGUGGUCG; conditions: 37 °C
assayReadout: self-splicing fitness (ln)

Worked cases, answers included:
INSERT INTO assay_data (monomersequence, assayreadout, assayresult) VALUES
  ('AGCCAGCAAUAUUACGUUAU', 'self-splicing fitness (ln)', -1.75),
  ('CGCCAGCAAUAUUACGACAG', 'self-splicing fitness (ln)', 0.18),
  ('CCCUAGCAAUAUUACGAUGA', 'self-splicing fitness (ln)', -2.35),
  ('UCAGAGCAAUAUUACGACUC', 'self-splicing fitness (ln)', -2.31),
  ('GGUAAGCAAUAUUACGUUUC', 'self-splicing fitness (ln)', 0.249);

What does the record list as self-splicing fitness (ln) for AGAAAGCAAUAUUACGGGCC ?
-1.04

One more sequence: GUUGAGCAAUAUUACGCGCA
-0.636

One more sequence: ACCUAGCAAUAUUACGGAGA
-2.45

One more sequence: GGCCAGCAAUAUUACGUGUA
-1.51

One more sequence: GGGCAGCAAUAUUACGUGCA
0.116
